From: patent US20110165145A1

SYSTEM_TESTED: insulin-like growth factor I (IGF-I) (UniProt P05019 49-118)
Sequence (P05019 49-118 limits assumed): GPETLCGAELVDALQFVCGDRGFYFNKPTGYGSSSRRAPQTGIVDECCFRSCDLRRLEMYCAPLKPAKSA
METHOD_NOTES: cell-based or functional assay
Listed next: entries and their corresponding IGF-I stimulated Ba/F3 cell proliferation, sFab at 50 µg/ml.

Please review the following examples before continuing.
[
  {
    "BINDER": "M0072-G06 Fab (Fab, V domains shown, soluble Fab (sFab); also called R0032-C05) VH: EVQLLESGGGLVQPGGSLRLSCAASGFTFSEYVMWWVRQAPGKGLEWVSVISPSGGYTVYADSVKGRFTISRDNSKNTLYLQMNSLRAEDTAVYYCARDRGGATTLDYWGQGTLVTVSS VL: DIQMTQSPSTLSASVGDRVTITCRASQTISSWLAWYQQKPGKAPKLMIYKAASLGSEVPSRFSGSGSGTEFTLTISSLQPEDFSTYYCQQYKTYPVTFGQGTRLEIKR",
    "RESULT": "~30 % inhibition"
  },
  {
    "BINDER": "M0072-C06 Fab (Fab, V domains shown, soluble Fab (sFab); also called R0032-A09) VH: EVQLLESGGGLVQPGGSLRLSCAASGFTFSAYIMTWVRQAPGKGLEWVSSISPSGGYTVYADSVKGRFTISRDNSKNTLYLQMNSLRAEDTAVYYCARDSGFGDPFDYWGQGTMVTVSS VL: DIQMTQSPSSLSASVGDRVTITCRASQSIRNYLNWYQQKPGKAPKLLIYAASKLEDGVPSRFSGSGTGTDFTLTIRSLQPEDFASYFCQQSYSSPGITFGPGTKVEIKR",
    "RESULT": "~30 % inhibition"
  }
]

Just so you know, measured IGF-I stimulated Ba/F3 cell proliferation, sFab at 50 µg/ml for M0068-E03 Fab (Fab, V domains shown, soluble Fab (sFab); heavy constant part carries His6 and myc tags; also called R0032-C01) VH: EVQLLESGGGLVQPGGSLRLSCAASGFTFSEYVMAWVRQAPGKGLEWVSSIVSSGGYTKYADSVKGRFTISRDNSKNTLYLQMNSLRAEDTAVYYCAKDMTYSGDAFDVWGQGTMVTVSS VL: DIQMTQSPSSLSASVGDRVTITCRASQSINTYLNWYQQKPGKAPKVLIHAASTLESGVPSRFSGSGSATEFTLTISSLQPEDFATFYCQQSYSVPFTFGPGTRLSSKR came out at ~30 % inhibition
